Recorded Count values for a group of substances are listed next.
- Tested on: Human Myelin PLP
- experiment_summary: Phage display library screening (Example 1, Power BI analysis), binding to Human Myelin PLP
- test_parameters: R3 Myelin PLP, NextGen sequencing count of phage sequences distinct for this target
metric: Count

substance | tested_on | metric | reported_measurement
TNPWKPH (R3 Myelin PLP-binding peptide) | Human Myelin PLP | Count | 62
GLIRHYT (R3 Myelin PLP-binding peptide) | Human Myelin PLP | Count | 66
EKPSWTR (R3 Myelin PLP-binding peptide) | Human Myelin PLP | Count | 33

---

- tested_on: Human MPZ (human) (UniProt P25189)
- Sequence (P25189 30-153 limits assumed): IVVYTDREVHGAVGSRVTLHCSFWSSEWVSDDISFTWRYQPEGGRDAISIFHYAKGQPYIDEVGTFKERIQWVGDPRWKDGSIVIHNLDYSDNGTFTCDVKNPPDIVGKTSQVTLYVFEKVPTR
- experiment_summary: phage display, NGS count
Decide using Count alone. Strictly below 40: Condition met. Equal to or above 40: Condition not met.

substance | cat
GPVVSGM (peptide) | Condition not met
KMAGHTV (peptide) | Condition not met
NPTSEGA (peptide) | Condition met
SGHGAFR (peptide) | Condition not met
ALPISYL (peptide) | Condition not met
ETTRNYG (peptide) | Condition not met
KQPAMEN (peptide) | Condition met
LISPTAR (peptide) | Condition met

---

- tested_on: Human Myelin Basic Protein (Homo sapiens, UniProt P02686)
- Sequence (P02686 134-304): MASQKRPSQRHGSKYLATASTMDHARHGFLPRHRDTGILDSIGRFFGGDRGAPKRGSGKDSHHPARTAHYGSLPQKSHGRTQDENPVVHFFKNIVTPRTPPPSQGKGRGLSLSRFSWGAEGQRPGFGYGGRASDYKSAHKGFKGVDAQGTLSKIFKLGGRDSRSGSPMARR
- experiment_summary: Phage display library screening (Example 2, Python script analysis), binding to Human Myelin Basic Protein
- Design: Enzo 200-606-M001 from human; purchased Enzo 200-606-M001; host or cells: human brain (tissue-derived)
- test_parameters: R3 Myelin Basic Protein; combined unique sequence count, Python/R script analysis
Recorded Count values for a group of substances are listed next.

substance | Count
LMLPQLE (R3 Myelin Basic Protein-binding peptide) | 6
HRLPWHH (R3 Myelin Basic Protein-binding peptide) | 10
SVEYGQL (R3 Myelin Basic Protein-binding peptide) | 9
TPLYLSS (R3 Myelin Basic Protein-binding peptide) | 7
YPTYLSY (R3 Myelin Basic Protein-binding peptide) | 6
IPIPYRT (R3 Myelin Basic Protein-binding peptide) | 6
NGVSSSL (R3 Myelin Basic Protein-binding peptide) | 6
SISKIRT (R3 Myelin Basic Protein-binding peptide) | 7
AGSLLSL (R3 Myelin Basic Protein-binding peptide) | 6
QGAYVRP (R3 Myelin Basic Protein-binding peptide) | 6
NLKLWTR (R3 Myelin Basic Protein-binding peptide) | 7
CEDSDKSVC (R3 Myelin Basic Protein-binding peptide) | 7
AIPPRKL (R3 Myelin Basic Protein-binding peptide) | 6
WDLRHSK (R3 Myelin Basic Protein-binding peptide) | 6
VLSPYHN (R3 Myelin Basic Protein-binding peptide) | 6
TSPPLAH (R3 Myelin Basic Protein-binding peptide) | 8
MPSLKHQ (R3 Myelin Basic Protein-binding peptide) | 8
ALRDTRV (R3 Myelin Basic Protein-binding peptide) | 6
GQWWKML (R3 Myelin Basic Protein-binding peptide) | 6
CTMTNQYDC (R3 Myelin Basic Protein-binding peptide) | 6
IPYSQMP (R3 Myelin Basic Protein-binding peptide) | 6

---

- Tested on: excised human nerve tissue (or nerve extracts)
- experiment_summary: Phage display library screening (Example 2), NEB tissue-binding peptides: nerve tissue and nerve extracts versus muscle
- test_parameters: unique sequence count, tissue target: excised nerve, peptides not binding muscle extracts
metric: Count Excised Nerve

sequence_data | tested_on | metric | reported_measurement
TSAHHDRTLAGS | excised human nerve tissue (or nerve extracts) | Count Excised Nerve | 6
VRSDMVSGGLQK | excised human nerve tissue (or nerve extracts) | Count Excised Nerve | 14
HSGAYTIQASYK | excised human nerve tissue (or nerve extracts) | Count Excised Nerve | 9
VESGHAYSVSSW | excised human nerve tissue (or nerve extracts) | Count Excised Nerve | 14
AFRFEFQVPDSH | excised human nerve tissue (or nerve extracts) | Count Excised Nerve | 7
WVGPDIIAQMRI | excised human nerve tissue (or nerve extracts) | Count Excised Nerve | 8
GMRTGDDSPKYP | excised human nerve tissue (or nerve extracts) | Count Excised Nerve | 14
GLLREPDELMFL | excised human nerve tissue (or nerve extracts) | Count Excised Nerve | 18
TDNGSFLGKLTS | excised human nerve tissue (or nerve extracts) | Count Excised Nerve | 7
